- Test System: Herpes Simplex Virus Ribonucleotide Reductase (Human herpesvirus 2)
- Construct: HSV RR was purified from Baby Hamster Kidney cells that were cultured with HSV2 Strain 186; made in house; host or cells: Baby Hamster Kidney cells infected with HSV2 Strain 186
- Sequence (P89462 whole entry): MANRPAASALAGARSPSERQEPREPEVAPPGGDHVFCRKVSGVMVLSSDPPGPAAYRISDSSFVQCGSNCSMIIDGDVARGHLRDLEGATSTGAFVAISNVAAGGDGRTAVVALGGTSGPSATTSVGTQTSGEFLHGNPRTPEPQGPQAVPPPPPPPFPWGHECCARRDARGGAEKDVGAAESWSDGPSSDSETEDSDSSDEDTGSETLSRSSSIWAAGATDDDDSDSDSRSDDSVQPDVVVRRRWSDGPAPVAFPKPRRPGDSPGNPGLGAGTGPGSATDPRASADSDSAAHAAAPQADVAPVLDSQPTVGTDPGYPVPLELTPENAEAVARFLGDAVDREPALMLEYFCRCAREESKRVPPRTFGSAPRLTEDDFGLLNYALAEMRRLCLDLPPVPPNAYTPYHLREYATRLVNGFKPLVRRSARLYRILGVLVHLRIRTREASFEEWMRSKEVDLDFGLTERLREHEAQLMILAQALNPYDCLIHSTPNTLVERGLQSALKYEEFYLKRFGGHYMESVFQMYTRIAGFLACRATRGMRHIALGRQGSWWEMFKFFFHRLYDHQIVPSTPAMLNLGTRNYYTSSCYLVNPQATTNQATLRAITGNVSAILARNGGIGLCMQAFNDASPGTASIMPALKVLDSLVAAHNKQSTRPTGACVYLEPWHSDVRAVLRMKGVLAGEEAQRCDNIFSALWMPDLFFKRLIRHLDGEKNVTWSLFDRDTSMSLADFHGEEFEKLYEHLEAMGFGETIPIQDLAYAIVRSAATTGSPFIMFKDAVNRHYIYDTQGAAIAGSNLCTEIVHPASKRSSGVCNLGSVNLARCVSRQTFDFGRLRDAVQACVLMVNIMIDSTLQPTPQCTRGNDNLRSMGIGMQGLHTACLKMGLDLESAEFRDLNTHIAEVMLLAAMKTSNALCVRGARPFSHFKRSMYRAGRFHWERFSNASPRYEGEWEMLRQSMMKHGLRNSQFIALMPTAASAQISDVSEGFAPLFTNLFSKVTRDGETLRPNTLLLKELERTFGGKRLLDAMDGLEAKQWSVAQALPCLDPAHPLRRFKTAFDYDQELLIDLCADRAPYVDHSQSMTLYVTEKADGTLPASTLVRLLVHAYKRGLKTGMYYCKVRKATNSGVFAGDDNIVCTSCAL
- Protocol: Assay of Inhibition of HSV RR Activity (reduction of tritiated cytidine-diphosphate)
- Format: biochemical, HSV2 Strain 186
- Condition Set: 30 minutes at 37°C, dithiothreitol and MgCl2, enzyme not preincubated with inhibitor; read-out: IC50 (μM concentration of peptide producing 50% inhibition of enzyme activity)
Ends that are not written are not given here.
Recorded Metric: IC50 (µM)
Give bare numbers, in µM.

Asked: Form field: reported IC50 of STSYAGAVVNDL [STSYAGAVVNDL]
Given back: 17

Asked: Form field: reported IC50 of AGAVVNDL [AGAVVNDL]
Given back: 80

Asked: Form field: reported IC50 of AVVNDL [AVVNDL]
Given back: 51

Asked: Form field: reported IC50 of SYAGAVVNDL [SYAGAVVNDL]
Given back: 17

Asked: Form field: reported IC50 of FPLSLMSTDKHTNFFECRSTSYAGAVVNDL
Given back: 8

Asked: Form field: reported IC50 of Ac-GAVVNDL [AcGAVVNDL]
Given back: 75

// each listed substance needs a value for IC50
1. TSYAGAVVNDL [TSYAGAVVNDL]
2. GAVVNDL [GAVVNDL]
3. Ac-AVVNDL [AcAVVNDL]

Given back:
1: 17; 2: 70; 3: 87

----------
Give IC50 for every item shown.
- Test System: Herpes Simplex Virus Ribonucleotide Reductase (Human herpesvirus 2)
- Construct: HSV RR was purified from Baby Hamster Kidney cells that were cultured with HSV2 Strain 186; made in house; host or cells: Baby Hamster Kidney cells infected with HSV2 Strain 186
- Protocol: Assay of Inhibition of HSV RR Activity (reduction of tritiated cytidine-diphosphate)
- Assay type: biochemical, HSV2 Strain 186
- Condition Set: 30 minutes at 37°C, dithiothreitol and MgCl2, enzyme not preincubated with inhibitor; read-out: IC50 (μM concentration of peptide producing 50% inhibition of enzyme activity)
Peptide text beside a SMILES is read from it. * marks the point of attachment. Desaminotyrosyl = O=C(CCc1ccc(O)cc1)*
# do not omit the unit; it follows the number

Solved cases (4 shown):
Asked: Form field: reported IC50 of CC(C)C[C@H](NC(=O)[C@H](CC(=O)O)NC(=O)[C@H](CC(N)=O)NC(=O)[C@@H](NC(=O)[C@@H](NC(=O)[C@H](C)NC(=O)CNC(=O)[C@H](C)NC(=O)[C@@H](N)Cc1ccc(O)cc1)C(C)C)C(C)C)C(=O)O [YAGAVVNDL, Tyr Ala Gly Ala Val Val Asn Asp Leu, reference compound]
Given back: 10 µM

Asked: Form field: reported IC50 of CC(C)C[C@H](NC(=O)[C@H](CC(=O)O)NC(=O)[C@H](CC(N)=O)NC(=O)[C@@H](NC(=O)[C@@H](N)C(C)C)C(C)C)C(=O)O
Given back: 250 µM

Asked: Form field: reported IC50 of CC(C)C[C@H](NC(=O)[C@H](CC(=O)O)NC(=O)[C@H](CC(N)=O)NC(=O)[C@@H](NC(=O)[C@@H](NC(=O)[C@H](C)NC(=O)CNC(=O)[C@H](C)NC(=O)[C@@H](N)Cc1ccc(O)cc1)C(C)C)C(C)C)C(N)=O
Given back: 75 µM

Asked: Form field: reported IC50 of CC(C)C[C@H](NC(=O)[C@H](CC(=O)O)NC(=O)[C@H](CC(N)=O)NC(=O)[C@@H](NC(=O)[C@@H](NC(=O)[C@H](C)NC(=O)CNC(=O)[C@H](C)NC(=O)CCc1ccc(O)cc1)C(C)C)C(C)C)C(=O)O [desNH2--YAGAVVNDL, desNH2-YAGAVVNDL] (Desaminotyrosyl-AGAVVNDL-OH)
Given back: 20 µM

***
Asked: Form field: reported IC50 of CC(=O)N[C@@H](Cc1ccc(O)cc1)C(=O)N[C@@H](C)C(=O)NCC(=O)N[C@@H](C)C(=O)N[C@H](C(=O)N[C@H](C(=O)N[C@@H](CC(N)=O)C(=O)N[C@@H](CC(=O)O)C(=O)N[C@@H](CC(C)C)C(=O)O)C(C)C)C(C)C
Given back: 5 µM
